Quick reference for level, % of control at 100 µM among some compounds
- Tested on: RAW264.7
- MEASUREMENT NOTES: Antiinflammatory activity against mouse RAW264.7 cells assessed as LPS-induced nitrate production at 100 uM treated 30 mins before LPS challenge measured after 24 hrs by Griess reagent method relative to control
Note: unit % is implicit; provide only the numeric part.

- COMPOUND: "COc1ccc2c(c1)c(CC(=O)O)c(C)n2C(=O)c1ccc(Cl)cc1 [INDOMETHACIN]"
  level, % of control at 100 µM / %: 39.8
- COMPOUND: "O=C(OCCO[N+](=O)[O-])C1(c2ccc(-c3ccc(Cl)c(Cl)c3)c(F)c2)CC1"
  level, % of control at 100 µM / %: 40

Query (compound): CC(C(=O)OCCCCO[N+](=O)[O-])c1ccc(-c2ccccc2)c(F)c1 (stereo not drawn) ; field requested: level, % of control at 100 µM
49.8

---

- MEASUREMENT NOTES: Cytotoxicity against mouse RAW264.7 cells assessed as cell viability at 10 uM after 24 hrs by MTT assay relative to control
- Format: cell-based
- CONDITION LABEL: read-out: Activity
Quick reference for viability at 24 h, 10 µM among some compounds
Note: unit % is implicit; provide only the numeric part.

- COMPOUND: "COc1ccc2c(c1)c(CC(=O)NCCc1cccnc1)c(C)n2C(=O)c1ccc(Cl)cc1"
  EXPERIMENTAL ENDPOINT: "viability at 24 h, 10 µM"
  VALUE: 95.6
- COMPOUND: "COc1ccc2c(c1)c(CC(=O)O)c(C)n2C(=O)c1ccc(Cl)cc1"
  EXPERIMENTAL ENDPOINT: "viability at 24 h, 10 µM"
  VALUE: 98.7
- COMPOUND: "O=C(O)C(F)c1ccc(-c2ccccc2)c(F)c1 (stereo unspecified)"
  EXPERIMENTAL ENDPOINT: "viability at 24 h, 10 µM"
  VALUE: 92.7
- COMPOUND: "COc1ccc2c(c1)c(CC(=O)Nc1ccc(Cl)cc1)c(C)n2C(=O)c1ccc(Cl)cc1"
  EXPERIMENTAL ENDPOINT: "viability at 24 h, 10 µM"
  VALUE: 92.2

Query (compound): NC(=O)C(F)c1ccc(-c2ccc(F)cc2)c(F)c1 (stereo unspecified) ; field requested: viability at 24 h, 10 µM
90.6

Query (compound): "N#CC(F)(F)c1ccc(-c2ccc(F)cc2)c(F)c1" ; field requested: viability at 24 h, 10 µM
98.2

---

- MEASUREMENT NOTES: Cytotoxicity against mouse RAW264.7 cells assessed as cell viability at 10 uM after 24 hrs by MTT assay relative to control
- Assay type: cell-based
- CONDITION LABEL: read-out: Activity
EXPERIMENTAL ENDPOINT: viability at 24 h, 10 µM (%)
Note: unit % is implicit; provide only the numeric part.

Here's what some known entries look like.
- COMPOUND: "N#CC(F)c1ccc(-c2ccc(F)cc2)c(F)c1 (stereo not drawn)"
  EXPERIMENTAL ENDPOINT: "viability at 24 h, 10 µM"
  READING UNIT: "%"
  VALUE: 84.5
- COMPOUND: "NC(=O)C(F)(F)c1ccc(-c2ccc(F)cc2)c(F)c1"
  EXPERIMENTAL ENDPOINT: "viability at 24 h, 10 µM"
  READING UNIT: "%"
  VALUE: 98.8

Query (compound): O=C(O)C(O)c1ccc(-c2ccc(F)cc2)c(F)c1 (stereo not drawn) ; field requested: viability at 24 h, 10 µM
102

Every entry's value here was drawn from ChEMBL document CHEMBL1765072.
